Every entry's value here was drawn from paper PMC5898815.

- test_summary: PAMPA permeability
- Format: in vitro ADME

{"molecule": "O=C(Nc1cccc(C(F)(F)F)c1)NC1CCN(Cc2cccc(F)c2)CC1", "Pampa": ">0.0022 cm/s"}
{"molecule": "O=C(Nc1ccccc1)NC1CCN(Cc2ccccc2)CC1", "Pampa": "1400 ± 250 ×10^−6 cm/s"}
{"molecule": "O=C(Nc1cccc(C(F)(F)F)c1)NC1CCN(Cc2ccccc2F)CC1", "Pampa": "1500 ± 1 ×10^−6 cm/s"}
{"molecule": "CCCN1CCC(N(Cc2ccco2)C(=O)Nc2cccc(C(F)(F)F)c2)CC1", "Pampa": ">0.0022 cm/s"}
{"molecule": "O=C(Nc1cccc(C(F)(F)F)c1)NC1CCN(Cc2ccc(Cl)cc2)CC1", "Pampa": "1300 ± 43 ×10^−6 cm/s"}
{"molecule": "CCCN1CCC(N(Cc2cccnc2)C(=O)Nc2cccc(C(F)(F)F)c2)CC1", "Pampa": "1300 ±79 ×10^−6 cm/s"}
{"molecule": "CCCC(C)N1CCC(N(Cc2ccccc2)C(=O)Nc2cccc(C(F)(F)F)c2)CC1 (stereo not drawn)", "Pampa": "1400 ±39 ×10^−6 cm/s"}
{"molecule": "O=C(Nc1cccc(C(F)(F)F)c1)NC1CCN(Cc2ccc(F)cc2)CC1", "Pampa": ">0.0022 cm/s"}
{"molecule": "O=C(Nc1cccc(C(F)(F)F)c1)NC1CCN(Cc2cccc(Cl)c2)CC1", "Pampa": "1700 ± 1 ×10^−6 cm/s"}

----------
- test_summary: PAMPA permeability
- Assay type: in vitro ADME
Parameter: Pampa. Scope: all listed entries.

{"item_smiles": "CCCN1CCC(N(Cc2cc(F)cc(C(F)(F)F)c2)C(=O)Nc2cccc(C(F)(F)F)c2)CC1", "Pampa": ">0.0022 cm/s"}
{"item_smiles": "CCCS(=O)(=O)N1CCC(N(Cc2ccccc2)C(=O)Nc2cccc(C(F)(F)F)c2)CC1", "Pampa": "<1e-06 cm/s"}
{"item_smiles": "Cc1ccc(NC(=O)NC2CCN(Cc3ccccc3)CC2)cc1Cl", "Pampa": ">0.0022 cm/s"}
{"item_smiles": "CCCN1CCC(N(Cc2ccc3c(c2)OCO3)C(=O)Nc2cccc(C(F)(F)F)c2)CC1", "Pampa": ">0.0022 cm/s"}
{"item_smiles": "CCCN1CCC(N(Cc2ccccc2)C(=O)Nc2cccc(C(F)(F)F)c2)CC1", "Pampa": "1800 ± 1 ×10^−6 cm/s"}
{"item_smiles": "CCCCCN1CCC(N(Cc2ccccc2)C(=O)Nc2cccc(C(F)(F)F)c2)CC1", "Pampa": "1400 ± 540 ×10^−6 cm/s"}
{"item_smiles": "CCCN1CCC(N(CCC(C)C)C(=O)Nc2cccc(C(F)(F)F)c2)CC1", "Pampa": "1500 ±5.4 ×10^−6 cm/s"}
{"item_smiles": "CCCCN(C(=O)Nc1cccc(C(F)(F)F)c1)C1CCN(CCC)CC1", "Pampa": ">0.0022 cm/s"}
{"item_smiles": "O=C(Nc1cccc(C(F)(F)F)c1)N(Cc1ccccc1)C1CCNCC1", "Pampa": ">0.0022 cm/s"}
{"item_smiles": "Cc1ccccc1CN1CCC(NC(=O)Nc2cccc(C(F)(F)F)c2)CC1", "Pampa": "1200 ± 35 ×10^−6 cm/s"}
{"item_smiles": "CCCN1CCC(N(CC(C)C)C(=O)Nc2cccc(C(F)(F)F)c2)CC1", "Pampa": "1900±200 ×10^−6 cm/s"}
{"item_smiles": "Cc1cccc(CN2CCC(NC(=O)Nc3cccc(C(F)(F)F)c3)CC2)c1", "Pampa": ">0.0022 cm/s"}
{"item_smiles": "O=C(Nc1cccc(C(F)(F)F)c1)N(Cc1ccccc1)C1CCN(CC2CCCCC2)CC1", "Pampa": "<1e-06 cm/s"}
{"item_smiles": "CCCN1CCC(N(CCOC)C(=O)Nc2cccc(C(F)(F)F)c2)CC1", "Pampa": "1600 ± 1 ×10^−6 cm/s"}
{"item_smiles": "Cn1nccc1-c1cccc(NC(=O)NC2CCN(Cc3ccccc3)CC2)c1", "Pampa": ">0.0022 cm/s"}
{"item_smiles": "CCCCN1CCC(N(Cc2ccccc2)C(=O)Nc2cccc(C(F)(F)F)c2)CC1", "Pampa": ">0.0022 cm/s"}
{"item_smiles": "CCCCS(=O)(=O)N1CCC(N(Cc2ccccc2)C(=O)Nc2cccc(C(F)(F)F)c2)CC1", "Pampa": "<1e-06 cm/s"}

----------
- test_summary: PAMPA permeability
- Type: in vitro ADME
measurement_name: Pampa

{"molecule": "CCCN1CCC(N(CC2CCCCC2)C(=O)Nc2cccc(C(F)(F)F)c2)CC1 [Compound 40]", "measurement": ">0.0022 cm/s"}
{"molecule": "CCCN1CCC(N(CCC)C(=O)Nc2cccc(C(F)(F)F)c2)CC1 [Compound 35]", "measurement": "1600 ±170 ×10^−6 cm/s"}
{"molecule": "Cc1ccc(CN2CCC(NC(=O)Nc3cccc(C(F)(F)F)c3)CC2)cc1 [Compound 19]", "measurement": ">0.0022 cm/s"}
